meta.source: the NIST ThermoML archive (doi:10.1021/je200434a)

assay-context: 339.15 K; 101.33 kPa; Liquid; Vibrating tube method
value-kind: mass density (kg/m3)

compound	value-kind	number
CCCCCCOS(=O)(=O)[O-].CC[n+]1ccn(C)c1 [3-ethyl-1-methyl-1H-imidazolium hexyl sulfate]	mass density	1103.41
CCn1cc[n+](C)c1.O=S(=O)([O-])O [1-ethyl-3-methylimidazolium hydrogen sulfate]	mass density	1340.95
CCCCOS(=O)(=O)[O-].CC[n+]1ccn(C)c1 [3-ethyl-1-methylimidazolium butyl sulfate]	mass density	1148.95
CCn1cc[n+](C)c1.COS(=O)(=O)[O-] [1-ethyl-3-methylimidazolium methylsulfate]	mass density	1258.44
CCCCCCCCOS(=O)(=O)[O-].CCn1cc[n+](C)c1 [1-ethyl-3-methylimidazolium octyl sulfate]	mass density	1068.71
